- target: LHRH binding sites on EFO-27 human ovarian cancer cells (human)
- assay remarks: competition with [125I-Tyr8]BRU-2477 on EFO-27 cells
pEC50: −log10 of the molar value. Non-standard residues stand in square brackets, D forms with d. Primed or numbered codes have the meaning given here. DO3A10CM(3) = metal chelator group attached at the N-terminus (X in table rows); Bpa = N[C@@H](Cc1ccc(C(=O)c2ccccc2)cc1)C(=O)O; azaGly = NNC(=O)O; Sar = CNCC(=O)O
measurement kind: pEC50

(A) XHWSHXWXPX (DO3A10CM on N-terminus; AA1 Sar; AA6 Darg; AA8 Bpa(NOH); AA10 azaGly-NH2) [BRU-2907]
(B) XRWSHXWXP (DO3A10CM on N-terminus; AA1 Dnal2; AA6 Darg; AA8 Bpa4; AA10 Pheol) [BRU-2983]
(C) {DO3A10CM(3)}-[Sar]HWSH[dA]W[Bpa]P[azaGly]-NH2 [BRU-2672]
Kindly order the items shown according to pEC50, from the highest value down. Arrange the labels as the request states and list them.
B, A, C
